system: hepatocytes; test: Hepatocyte stability assay, mouse; type: in vitro ADME; conditions: 10 μM compound, 0.5×10^6 cells/mL, 60 min
valueType: CIint (μL min^−1 10^−6 cells)

Please review the following examples before continuing.
Incoming: Report CIint for C=C(CC(=O)OC1(c2ccc(Cl)cc2)CCC1)C(=O)OCC(=O)O [Example 4] please.
Outgoing: 69

Incoming: Report CIint for C=C(CC(=O)OC1(c2ccc(C(F)(F)F)cc2Cl)CCC1)C(=O)OCC(=O)O [Example 11] please.
Outgoing: 100

Incoming: Report CIint for C=C(CC(=O)OC1(c2ccc(OC(F)(F)F)cc2)CCC1)C(=O)OCC(=O)O [Example 9] please.
Outgoing: 66

Incoming: Report CIint for C=C(CC(=O)OC1(c2ccc(C(F)(F)F)cc2)CCC1)C(=O)OCC(=O)O [Example 2] please.
Outgoing: 50

Incoming: Report CIint for C=C(CC(=O)OC1(c2cc(F)c(C(F)(F)F)c(F)c2)CCC1)C(=O)OCC(=O)O [Example 19] please.
Outgoing: 66

Incoming: Report CIint for C=C(CC(=O)OC1(c2ccc(C)c(Cl)c2)CCC1)C(=O)OCC(=O)O [Example 20] please.
Outgoing: 77

P: C=C(CC(=O)OC1(c2cc(Cl)ccc2Cl)CCC1)C(=O)OCC(=O)O [Example 5]
Q: C=C(CC(=O)OC1(c2ccc(C(F)(F)F)cc2)CC1)C(=O)OCC(=O)O [Example 30]
R: C=C(CC(=O)OC1(c2cc(Cl)cc(Cl)c2)CCC1)C(=O)OCC(=O)O [Example 1]
Incoming: Sort these molecules on CIint so the largest reading comes first. Enter labels, ranked according to the request.
Outgoing: P, R, Q
(P: 80 μL min^−1 10^−6 cells, R: 52 μL min^−1 10^−6 cells, Q: 33 μL min^−1 10^−6 cells)

###

experiment: Hepatocyte stability assay, mouse; format: in vitro ADME; details: cryopreserved hepatocytes, 10 μM compound, 0.5×10^6 cells/mL, 60 min, read-out: T½
valueType: half-life at 10 μM (min)

Please review the following examples before continuing.
Incoming: Report half-life at 10 μM for C=C(CC(=O)OC1(c2cc(Cl)cc(Cl)c2)CCC1)C(=O)OCC(=O)O [Example 1] please.
Outgoing: 24

Incoming: Report half-life at 10 μM for C=C(CC(=O)OC1(c2ccc(C(F)(F)F)cc2Cl)CCC1)C(=O)OCC(=O)O [Example 11] please.
Outgoing: 15

Incoming: Report half-life at 10 μM for C=C(CC(=O)OC1(c2cc(Cl)c(F)c(Cl)c2)CCC1)C(=O)OCC(=O)O [Example 17] please.
Outgoing: 21

Incoming: Report half-life at 10 μM for C=C(CC(=O)OC1(c2cc(Cl)ccc2Cl)CCC1)C(=O)OCC(=O)O [Example 5] please.
Outgoing: 24

Incoming: Report half-life at 10 μM for C=C(CC(=O)OC1(c2ccc(Br)cc2)CCC1)C(=O)OCC(=O)O [Example 3] please.
Outgoing: 20

a: C=C(CC(=O)OC1(c2ccc(Cl)cc2)CCC1)C(=O)OCC(=O)O [Example 4]
b: C=C(CC(=O)OC1(c2ccc(Br)cc2Cl)CCC1)C(=O)OCC(=O)O [Example 12]
c: C=C(CC(=O)OC1(c2cccc(Cl)c2Cl)CCC1)C(=O)OCC(=O)O [Example 7]
Incoming: Sort these compounds on half-life at 10 μM so the largest reading comes first. Enter labels, ranked according to the request.
Outgoing: a, c, b

###

system: hepatocytes; test: Hepatocyte stability assay, human; type: in vitro ADME; settings: 10 μM compound, 0.5×10^6 cells/mL, 60 min
valueType: CIint (μL min^−1 10^−6 cells)

Incoming: Any idea what CIint came out for `C=C(CC(=O)OC1(c2ccc(C(F)(F)F)cc2Cl)CCC1)C(=O)OCC(=O)O` on hepatocytes?
Outgoing: 10

Incoming: Any idea what CIint came out for `C=C(CC(=O)OC1(c2cc(Cl)c(OC)c(Cl)c2)CCC1)C(=O)OCC(=O)O` on hepatocytes?
Outgoing: 13

Incoming: Any idea what CIint came out for `C=C(CC(=O)OC1(c2cc(Cl)cc(Cl)c2)CCC1)C(=O)OCC(=O)O` on hepatocytes?
Outgoing: 13

Incoming: Any idea what CIint came out for `C=C(CC(=O)OC1(c2ccc(C(F)(F)F)cc2)CC1)C(=O)OCC(=O)O` on hepatocytes?
Outgoing: 16

Incoming: Any idea what CIint came out for `C=C(CC(=O)OC1(c2ccc(C(F)(F)F)c(Cl)c2)CCC1)C(=O)OCC(=O)O` on hepatocytes?
Outgoing: 7

a: C=C(CC(=O)OC1(c2ccc(Br)cc2)CCC1)C(=O)OCC(=O)O
b: C=C(CC(=O)OC1(c2ccc(Br)cc2Cl)CCC1)C(=O)OCC(=O)O
Incoming: // compare: a vs b , metric CIint, want the smaller Mark your selection by writing its label.
Outgoing: a

###

experiment: Hepatocyte stability assay, human; format: in vitro ADME; conditions: cryopreserved hepatocytes, 10 μM compound, 0.5×10^6 cells/mL, 60 min, read-out: T½
valueType: half-life at 10 μM (h)

Incoming: Report half-life at 10 μM for `C=C(CC(=O)OC1(c2cc(Cl)cc(Cl)c2)CCC1)C(=O)OCCC(=O)O` please.
Outgoing: 1.67

Incoming: Report half-life at 10 μM for `C=C(CC(=O)OC1(c2ccc(Cl)cc2Cl)CCC1)C(=O)OCC(=O)O` please.
Outgoing: 1.78

Incoming: Report half-life at 10 μM for `C=C(CC(=O)OC1(c2cc(Cl)cc(Cl)c2)CCC1)C(=O)OCC(=O)O` please.
Outgoing: 1.93

Incoming: Report half-life at 10 μM for `C=C(CC(=O)OC1(c2ccc(SC(F)(F)F)cc2)CCC1)C(=O)OCC(=O)O` please.
Outgoing: 1.93

###

test system: hepatocytes; assay: Hepatocyte stability assay, human; format: in vitro ADME; conditions: 10 μM compound, 0.5×10^6 cells/mL, 60 min
valueType: CIint (μL min^−1 10^−6 cells)

Incoming: Any idea what CIint came out for `C=C(CC(=O)OC1(c2cc(Cl)c(F)c(Cl)c2)CCC1)C(=O)OCC(=O)O` on hepatocytes?
Outgoing: 8

Incoming: Any idea what CIint came out for `C=C(CC(=O)OC1(c2ccc(SC(F)(F)F)cc2)CCC1)C(=O)OCC(=O)O` on hepatocytes?
Outgoing: 11

Incoming: Any idea what CIint came out for `C=C(CC(=O)OC1(c2c(Cl)cccc2Cl)CCC1)C(=O)OCC(=O)O` on hepatocytes?
Outgoing: 11

Incoming: Any idea what CIint came out for `C=C(CC(=O)OC1(c2cc(Cl)ccc2Cl)CCC1)C(=O)OCC(=O)O` on hepatocytes?
Outgoing: 9

Incoming: Any idea what CIint came out for C=C(CC(=O)OCCCCCCCC)C(=O)O [4-octyl itaconate, reference compound] on hepatocytes?
Outgoing: 401
